- system name: VSTB174
- Sequence (VH, as listed by the source, chain 1 of 2): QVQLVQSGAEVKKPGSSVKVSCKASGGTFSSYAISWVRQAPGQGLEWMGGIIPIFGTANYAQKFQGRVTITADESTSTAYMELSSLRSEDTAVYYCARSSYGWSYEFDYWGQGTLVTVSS
- Sequence (VL, as listed by the source, chain 2 of 2): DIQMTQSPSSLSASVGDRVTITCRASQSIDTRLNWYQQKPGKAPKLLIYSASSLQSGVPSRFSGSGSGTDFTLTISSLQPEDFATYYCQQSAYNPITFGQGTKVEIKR
- assay notes: peptide blocking ELISA on plate-bound VISTA, peptide 20 ug/mL
percent reduction in ELISA signal values, listed per item
Expressed in %, but write only the number.

// known answers, use as guide
LAQRHGLESASDHHG (synthetic overlapping peptide from human VISTA) [Spiked Peptide 17 (LAQRHGLESASDHHG)]: 46
NTSHDLAQRHGLESA (synthetic overlapping peptide from human VISTA) [Spiked Peptide 16 (NTSHDLAQRHGLESA)]: 28
FKVATPYSLYVCPEG (synthetic overlapping peptide from human VISTA) [Spiked Peptide 1 (FKVATPYSLYVCPEG)]: 18

Problem: Name the recorded percent reduction in ELISA signal for VQTGKDAPSNCVVYP (synthetic overlapping peptide from human VISTA) [Spiked Peptide 28 (VQTGKDAPSNCVVYP)] .
Result: 5
